experiment description: Oral bioavailability in CD-1 mouse measured at 75 mg/kg for 1 to 24 hrs by HPLC-MS/MS analysis
Type: ADME, organism-based
test conditions: in vivo, time 1-24 hrs
measured metric: bioavailability

query: Which bioavailability is listed for C[C@]1(O)C[C@@H](c2nc(-c3ccc4ccc(-c5ccccc5)nc4c3)c3c(N)nccn32)C1 ?
result: 84%

* * *

assayed system: Cytochrome P450 3A4 (Homo sapiens, UniProt P08684)
Sequence (P08684 whole entry): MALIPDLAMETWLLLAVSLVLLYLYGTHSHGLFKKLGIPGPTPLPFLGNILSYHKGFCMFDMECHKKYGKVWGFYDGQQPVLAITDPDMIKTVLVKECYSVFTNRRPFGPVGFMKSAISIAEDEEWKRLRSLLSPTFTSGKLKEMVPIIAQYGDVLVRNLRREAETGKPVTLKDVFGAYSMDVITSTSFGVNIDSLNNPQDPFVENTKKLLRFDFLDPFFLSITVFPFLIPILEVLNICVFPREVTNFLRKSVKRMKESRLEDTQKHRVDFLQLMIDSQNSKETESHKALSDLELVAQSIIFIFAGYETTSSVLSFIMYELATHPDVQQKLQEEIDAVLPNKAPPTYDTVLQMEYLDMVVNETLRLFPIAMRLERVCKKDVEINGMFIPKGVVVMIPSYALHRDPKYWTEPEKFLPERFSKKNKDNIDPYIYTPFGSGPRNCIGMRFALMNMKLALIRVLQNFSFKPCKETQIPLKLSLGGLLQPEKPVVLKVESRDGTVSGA
A collection of compounds and their measured IC50
# output: bare number, implied unit µM

- smiles: "Nc1nccn2c(C3CCC3)nc(-c3ccc4ccc(-c5ccccc5)nc4c3)c12"
  measured metric: "IC50"
  obs value: 3.3

Now consider a different compound.
query: Which IC50 is listed for CN1CCN([C@H]2C[C@@H](c3nc(-c4ccc5ccc(-c6ccccc6)nc5c4)c4c(N)nccn43)C2)CC1 ?
result: 8.3

* * *

experiment description: Elimination half life in CD-1 mouse at 25 mg/kg, po measured after 1 to 24 hrs by HPLC-MS/MS analysis
Type: ADME, organism-based
test conditions: in vivo, time 1-24 hrs, read-out: beta t1/2 (converted)
measured metric: half-life (h)
# output: bare number, implied unit h

query: Which half-life is listed for CN1CCN([C@H]2C[C@@H](c3nc(-c4ccc5ccc(-c6ccccc6)nc5c4)c4c(N)nccn43)C2)CC1 ?
result: 23.6

* * *

experiment description: Volume of distribution at steady state in Sprague-Dawley rat measured at 5 mg/kg, iv for 1 to 24 hrs by HPLC-MS/MS analysis
Assay type: ADME, organism-based
test conditions: in vivo, time 1-24 hrs, read-out: Vdss
measured metric: Vd (L/kg)
# output: bare number, implied unit L/kg

query: Which Vd is listed for C[C@]1(O)C[C@@H](c2nc(-c3ccc4ccc(-c5ccccc5)nc4c3)c3c(N)nccn32)C1 ?
result: 0.79

* * *

experiment description: Cmax in CD-1 mouse at 25 mg/kg, po measured after 1 to 24 hrs by HPLC-MS/MS analysis
Format: ADME, organism-based
test conditions: in vivo, time 1-24 hrs
measured metric: Cmax (nM)
# output: bare number, implied unit nM

query: Which Cmax is listed for CN1CCN([C@H]2C[C@@H](c3nc(-c4ccc5ccc(-c6ccccc6)nc5c4)c4c(N)nccn43)C2)CC1 ?
result: 2200

* * *

experiment description: Elimination half life in CD-1 mouse at 50 mg/kg, po measured after 1 to 24 hrs by HPLC-MS/MS analysis
Type: ADME, organism-based
test conditions: in vivo, time 1-24 hrs, read-out: beta t1/2 (converted)
measured metric: half-life (min)
# output: bare number, implied unit min

query: Which half-life is listed for Nc1nccn2c(C3CCC3)nc(-c3ccc4ccc(-c5ccccc5)nc4c3)c12 ?
result: 58.8

* * *

experiment description: Oral bioavailability in Beagle dog measured at 5 mg/kg for 1 to 24 hrs by HPLC-MS/MS analysis
Assay type: ADME, organism-based, Canis lupus familiaris
test conditions: in vivo, time 1-24 hrs
measured metric: bioavailability (%)
# output: bare number, implied unit %

query: Which bioavailability is listed for C[C@]1(O)C[C@@H](c2nc(-c3ccc4ccc(-c5ccccc5)nc4c3)c3c(N)nccn32)C1 [LINSITINIB] ?
result: 64
